Test system: crabgrass (Digitaria sanguinalis)
PROTOCOL DESCRIPTION: Test C pre/postemergence
Format: in vivo
MEASUREMENT PARAMETERS: Digitaria sanguinalis, pre-emergence, Preemergence, 125 g ai/ha; scale 0 to 100; read-out: Plant response rating, Crabgrass
PROPERTY NAME: pest or weed control at 125 g/ha (%)
Respond with the bare value in %.

[in] Look up pest or weed control at 125 g/ha for this molecule: CCOC(=O)c1nc(-c2ccc(Cl)cc2)nc(N)c1Cl [Compound 64]
[out] 70

[in] Can you look up the measured pest or weed control at 125 g/ha of CCOC(=O)c1nc(C2CC2)nc(N)c1F [Compound 30] for me?
[out] 70

[in] Can you look up the measured pest or weed control at 125 g/ha of Nc1nc(C2CC2)nc(C(=O)OCc2ccccc2)c1Br [Compound 22] for me?
[out] 95

[in] Entry under review: Nc1nc(C2CC2)nc(C(=O)OCc2ccccc2)c1Cl [Compound 78] . Reported pest or weed control at 125 g/ha?
[out] 45

###

Tested on: eastern black nightshade (Solanum ptycanthum)
PROTOCOL DESCRIPTION: Test C pre/postemergence
Assay type: in vivo
MEASUREMENT PARAMETERS: Solanum, pre-emergence, Preemergence, 125 g ai/ha; scale 0 to 100; read-out: Plant response rating, Nightshade
Excerpt: […]
PROPERTY NAME: pest or weed control at 125 g/ha (%)
Report the figure in % without appending any unit label.

[in] Need pest or weed control at 125 g/ha of COC(=O)c1nc(C(C)C)nc(N)c1Br [Compound 3] , thanks.
[out] 0

[in] Fill in: pest or weed control at 125 g/ha of CCOC(=O)c1nc(C2CC2)nc(N)c1F [Compound 30] is ___
[out] 100

[in] Would you mind telling me what pest or weed control at 125 g/ha value was observed for COC(=O)c1nc(C2CC2)nc(N)c1F [Compound 25] ?
[out] 75

[in] Name the reported pest or weed control at 125 g/ha value associated with the molecule CCOC(=O)c1nc(C2CC2)nc(N)c1Cl [Compound 4]
[out] 100

[in] Field request: pest or weed control at 125 g/ha | item: COC(=O)c1nc(C2CC2)nc(N)c1Br [Compound 2]
[out] 100

[in] Entry CCOC(=O)c1nc(-c2ccc(Cl)cc2)nc(N)c1Cl [Compound 64] has what pest or weed control at 125 g/ha?
[out] 85

###

Exercise: for every item that follows, state its recorded Crabgrass plant response rating.
Tested on: crabgrass (Digitaria sanguinalis)
PROTOCOL DESCRIPTION: Test B pre/postemergence
Format: in vivo
MEASUREMENT PARAMETERS: Postemergence, 62 g ai/ha; scale 0 to 100 (0 no effect, 100 complete control)

[in] Any idea what its Crabgrass plant response rating is? The molecule is Nc1nc(-c2ccc(Cl)cc2)nc(C(=O)O)c1Br [Compound 88]
[out] 70

[in] Could you share which Crabgrass plant response rating value was measured for Nc1nc(-c2ccc(Br)cc2)nc(C(=O)O)c1Br [Compound 136] ?
[out] 70

[in] Name the recorded Crabgrass plant response rating for COC(=O)c1nc(-c2ccc(Cl)cc2)nc(N)c1Br [Compound 83] .
[out] 50

[in] I'd like to know its Crabgrass plant response rating. The molecule in question is CCOC(=O)c1nc(-c2ccc(I)cc2)nc(N)c1Cl [Compound 133]
[out] 60

Cited source: patent US8802597B2
